- study target: PI3Kα (Homo sapiens, UniProt P42336, H1047R)
- Sequence (P42336 whole entry H1047R): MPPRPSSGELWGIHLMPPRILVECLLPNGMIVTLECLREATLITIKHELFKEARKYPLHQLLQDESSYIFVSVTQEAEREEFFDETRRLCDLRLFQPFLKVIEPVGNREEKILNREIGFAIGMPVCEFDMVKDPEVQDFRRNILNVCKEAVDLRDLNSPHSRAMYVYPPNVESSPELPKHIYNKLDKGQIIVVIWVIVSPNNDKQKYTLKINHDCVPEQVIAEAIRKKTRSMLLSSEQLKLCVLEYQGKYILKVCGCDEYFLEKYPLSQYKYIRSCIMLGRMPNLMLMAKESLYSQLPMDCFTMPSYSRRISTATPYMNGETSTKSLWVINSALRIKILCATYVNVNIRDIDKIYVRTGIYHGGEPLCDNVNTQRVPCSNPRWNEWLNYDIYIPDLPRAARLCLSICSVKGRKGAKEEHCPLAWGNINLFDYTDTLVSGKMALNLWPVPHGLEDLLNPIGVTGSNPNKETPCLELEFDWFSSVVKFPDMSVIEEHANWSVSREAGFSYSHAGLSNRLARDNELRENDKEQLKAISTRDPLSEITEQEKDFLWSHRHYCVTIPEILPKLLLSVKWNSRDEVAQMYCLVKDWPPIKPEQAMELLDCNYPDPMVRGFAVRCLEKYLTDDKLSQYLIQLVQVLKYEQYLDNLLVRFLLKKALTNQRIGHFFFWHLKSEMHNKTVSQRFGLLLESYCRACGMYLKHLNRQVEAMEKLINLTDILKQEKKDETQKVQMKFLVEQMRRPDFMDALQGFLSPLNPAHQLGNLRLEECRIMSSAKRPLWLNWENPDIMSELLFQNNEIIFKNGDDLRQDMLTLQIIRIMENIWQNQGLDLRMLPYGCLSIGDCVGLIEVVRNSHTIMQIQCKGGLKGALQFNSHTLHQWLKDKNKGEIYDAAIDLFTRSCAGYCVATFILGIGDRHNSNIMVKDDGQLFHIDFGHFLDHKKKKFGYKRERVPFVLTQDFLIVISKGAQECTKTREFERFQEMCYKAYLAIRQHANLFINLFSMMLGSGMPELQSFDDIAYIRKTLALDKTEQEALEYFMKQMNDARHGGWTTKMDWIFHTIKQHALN
- Sequence (P27986 whole entry partner): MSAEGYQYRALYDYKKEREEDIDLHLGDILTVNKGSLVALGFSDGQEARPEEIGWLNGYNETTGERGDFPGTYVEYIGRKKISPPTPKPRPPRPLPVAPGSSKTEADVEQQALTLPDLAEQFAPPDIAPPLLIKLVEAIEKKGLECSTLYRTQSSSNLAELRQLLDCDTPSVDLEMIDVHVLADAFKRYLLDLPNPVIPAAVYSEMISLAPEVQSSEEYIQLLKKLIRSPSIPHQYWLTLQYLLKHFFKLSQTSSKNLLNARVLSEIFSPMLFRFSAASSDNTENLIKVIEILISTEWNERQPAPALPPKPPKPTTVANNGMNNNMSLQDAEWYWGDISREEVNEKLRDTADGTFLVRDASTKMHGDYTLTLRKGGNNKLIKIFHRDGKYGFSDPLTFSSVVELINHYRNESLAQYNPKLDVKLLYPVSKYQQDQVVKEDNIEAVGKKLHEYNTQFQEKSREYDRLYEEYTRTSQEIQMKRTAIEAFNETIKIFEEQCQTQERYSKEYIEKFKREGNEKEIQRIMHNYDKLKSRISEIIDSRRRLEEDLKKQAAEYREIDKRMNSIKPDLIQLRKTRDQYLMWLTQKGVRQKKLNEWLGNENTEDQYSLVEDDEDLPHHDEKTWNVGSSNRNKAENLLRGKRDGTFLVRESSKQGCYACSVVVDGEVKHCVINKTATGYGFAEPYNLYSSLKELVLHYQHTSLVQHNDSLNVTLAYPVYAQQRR
- assay method text: ADP-Glo IC50 assay
- details: class symbols; key not given
IC50 by entry:

Known IC50 results, listed for orientation:
| compound | IC50 |
| --- | --- |
| O=C1CCC(N2Cc3cc(C(=O)NCCOCCOCCOCCOCCOCCOCCOCCOCCOCCOCCOCCOCCNC(=O)c4cc(NC(=O)c5cc(F)cc(C(F)(F)F)c5)c5c(c4)C(=O)N[C@@H]5c4cc(F)ccc4Cl)ccc3C2=O)C(=O)N1 (stereo partly shown) | 1000 to 10000 nM |
| Cc1ncsc1-c1ccc([C@H](C)NC(=O)[C@@H]2C[C@@H](O)CN2C(=O)[C@@H](NC(=O)CCCCCCCCCNC(=O)c2cc(NC(=O)c3cc(F)cc(C(F)(F)F)c3)c3c(c2)C(=O)N[C@@H]3c2cc(F)ccc2Cl)C(C)(C)C)cc1 | 100 to 500 nM |
| Cc1ncsc1-c1ccc(CNC(=O)[C@@H]2C[C@@H](O)CN2C(=O)[C@@H](NC(=O)CCCCCCCCCNC(=O)c2cc(NC(=O)c3cc(F)cc(C(F)(F)F)c3)c3c(c2)C(=O)N[C@H]3c2cc(F)ccc2Cl)C(C)(C)C)cc1 | 500 to 1000 nM |

We next turn to a different compound, shown below.
In: // lookup IC50 for Cc1cc([C@H](C)Nc2ccccc2)c2oc(N3CCN(C(=O)CCOCCOCCNC(=O)c4cnc(Nc5ccccc5C)c(NC(=O)c5csc6ccccc56)c4)CC3)cc(=O)c2c1
Out: 1000 to 10000 nM
